- Test system: MtYcaO (YcaO from Methanothermobacter sp. CaT2), MBP-His tag cut in the assay mixture (Methanothermobacter sp. CaT2)
- Protocol description: fluorescence polarisation
pEC50: −log10 of the molar value.

Binder: MtTfuA-E91D (enzyme) MHGKKIIIFTGPSLSHTEASSILEAEYRPPVRRGDIQEAMKENPDIIGIIDGVFHQSPAVGHREIIDAIRRGVKVVGGASMGALRASDLSDLGMVGVGRIFRSYLEGEIESDDDVAVAFNPETLEPLSDSLVSIEFNLKRALRRGVIREDDFRKLMNTARNLFYPLRNYRRILHESGIPDDVKESLRSFLESEGRDLKREDALEVIRHIKRLAYTE
Comparator: =
pEC50: 5.68

Binder: MtTfuA-F57A (enzyme) MHGKKIIIFTGPSLSHTEASSILEAEYRPPVRRGDIQEAMKENPDIIGIIDGVAHQSPAVGHREIIDAIRRGVKVVGGASMGALRASELSDLGMVGVGRIFRSYLEGEIESDDDVAVAFNPETLEPLSDSLVSIEFNLKRALRRGVIREDDFRKLMNTARNLFYPLRNYRRILHESGIPDDVKESLRSFLESEGRDLKREDALEVIRHIKRLAYTE
Comparator: =
pEC50: 5.42

Binder: MtTfuA-Y107A (enzyme) MHGKKIIIFTGPSLSHTEASSILEAEYRPPVRRGDIQEAMKENPDIIGIIDGVFHQSPAVGHREIIDAIRRGVKVVGGASMGALRASELSDLGMVGVGRIFRSALEGEIESDDDVAVAFNPETLEPLSDSLVSIEFNLKRALRRGVIREDDFRKLMNTARNLFYPLRNYRRILHESGIPDDVKESLRSFLESEGRDLKREDALEVIRHIKRLAYTE
Comparator: <
pEC50: 4.52

All figures here come from paper PMC8084935.
